# MEASURED TARGET: Ca^++ activated K channel of human erythrocytes (Homo sapiens, UniProt O15554)
# Construct: Preparation of Human Red Blood Cells: Blood is collected in heparinized tubes; endogenous in cells; host or cells: washed human erythrocytes (red blood cells from heparinized blood)
# EXPERIMENTAL PROTOCOL: Inhibition of Ca++ activated K channel of human erythrocytes, 86Rb influx
# Format: biochemical
# APPLIED CONDITIONS: human erythrocytes; FIG. 4
# Description: Preparation of Human Red Blood Cells: Blood is collected in heparinized tubes and centrifuged in a Sorvall centrifuge (RB 5B, Du Pont Instruments,Newtown, Conn.) at 5° C. for 10 minutes at 3000 g. […] An aliquot of cells is then suspended in an approximately equal volume of CWS, and from this original cell suspension hematocrit (Hct) and hemoglobin (optical density at 540 nm) are determined. […]
REPORTED METRIC: Inhibition of Ca++ activated 86Rb influx by other antimycotics

compound=OC(Cn1cncn1)(Cn1cncn1)c1ccc(F)cc1F measured_result="no inhibition"
compound=CCS(=O)(=O)CCn1c([N+](=O)[O-])cnc1C measured_result="no inhibition"
compound="Cc1ncc([N+](=O)[O-])n1CC(O)CCl (stereo not shown)" measured_result="no inhibition"
